- assayedTarget: human Kallikrein-related peptidase 5 (hKLK5) (human, UniProt Q9Y337 67-293)
- Sequence (Q9Y337 67-293): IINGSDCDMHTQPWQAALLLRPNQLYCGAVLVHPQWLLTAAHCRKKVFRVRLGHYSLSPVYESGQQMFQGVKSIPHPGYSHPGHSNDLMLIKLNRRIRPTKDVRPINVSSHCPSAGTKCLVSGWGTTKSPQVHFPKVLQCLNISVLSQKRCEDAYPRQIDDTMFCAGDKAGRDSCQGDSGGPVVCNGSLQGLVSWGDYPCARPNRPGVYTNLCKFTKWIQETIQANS
- assayText: enzyme inhibition
Positions of bridges follow the written chain, without caps; N, C: chain ends. No end group written: not given here.
quantityName: Ki (nM)
Please reply with the bare figure in nM and do not write the unit itself.

Recorded result, GCTRQYPC (linker 2-8 via 1,3‑dibromoacetone) [peptide 035 (lead KLK5 inhibitor)] , Ki: 10
